- tested.on: human IL-15 complexed with the IL-15 Receptor-alpha (human, UniProt P40933 49-162)
- Sequence (P40933 49-162 limits assumed, chain 1 of 2): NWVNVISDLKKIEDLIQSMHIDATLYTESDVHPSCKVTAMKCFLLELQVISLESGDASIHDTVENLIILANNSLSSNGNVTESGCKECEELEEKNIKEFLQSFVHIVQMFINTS
- Sequence (chain, as listed by the source limits assumed, chain 2 of 2): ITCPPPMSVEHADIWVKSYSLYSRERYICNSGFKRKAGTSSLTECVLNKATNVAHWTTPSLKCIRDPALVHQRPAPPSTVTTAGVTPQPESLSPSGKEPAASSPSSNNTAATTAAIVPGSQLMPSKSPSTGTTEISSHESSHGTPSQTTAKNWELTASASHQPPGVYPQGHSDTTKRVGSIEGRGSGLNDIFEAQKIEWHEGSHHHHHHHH
- assay.comment: cell-based or functional assay
measure: IC 50 (NK-92) in pM (pM)
The reply should be a number in pM, with the unit left off.

# input State its IC 50 (NK-92) in pM for this binder: Antibody 81 (antibody, V domains shown) VH: QVQLQESGPGLVKPSGTLSLTCAVSGGSISSSNWWSWVRQPPGKGLEWIGEIYHYGYTNYNPSLKSRVTISVDKSKNQFSLKLISVTAADTAVYYCAREGIGWPSFDYWGQGTLVTVSS VL: SSELTQDPAASVALGQTVRITCQGDTLRSYYASWYQQKPGQAPILVIYGKNNRPSGIPDRFSGSSSGNTASLTITGAQAEDEADYYCNSRDFSGKNLVFGGGTKLTVL
# output 17.3
